- target_system: MGL (Rattus norvegicus, UniProt Q8R431)
- Construct: one g rat brain was homogenized using a Polytron homogenizer; from tissue; host or cells: rat brain homogenate
- Sequence (Q8R431 whole entry): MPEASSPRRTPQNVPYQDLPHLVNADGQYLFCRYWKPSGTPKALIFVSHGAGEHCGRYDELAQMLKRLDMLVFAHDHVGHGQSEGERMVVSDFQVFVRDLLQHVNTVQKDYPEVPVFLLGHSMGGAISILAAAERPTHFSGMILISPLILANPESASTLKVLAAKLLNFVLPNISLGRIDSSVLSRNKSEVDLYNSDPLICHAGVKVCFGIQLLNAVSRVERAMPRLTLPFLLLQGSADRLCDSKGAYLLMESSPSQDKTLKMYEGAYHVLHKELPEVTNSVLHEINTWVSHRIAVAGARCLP
- protocol_summary: 2-AG accumulation assay in rat brain homogenate
- Type: biochemical
- measurement_context: rat brain homogenate; compound 1 μM; 2-AG accumulation as percent of vehicle; read-out: Rat Brain 2AG % VehCntrl (%) @ 1 μM
Item-by-item account of 2-AG accumulation, % of vehicle control at 1 µM
attribute_measured: 2-AG accumulation, % of vehicle control at 1 µM (%)

substance_smiles=O=C(c1ccc(-c2nc(-c3ccc(Cl)c(Cl)c3)cs2)cc1)N1CC(N2CCN(C(=O)c3nccs3)CC2)C1 unit_descriptor=% test_result=803
substance_smiles=O=C(c1cc2cc(C(F)(F)F)ccc2s1)N1CC(N2CCN(C(=O)c3nccs3)CC2)C1 unit_descriptor=% test_result=760
substance_smiles=O=C(c1ccc(Sc2cccc(C(F)(F)F)c2)cc1)N1CC(N2CCN(C(=O)c3nccs3)CC2)C1 unit_descriptor=% test_result=703
substance_smiles=Cc1cc(C(=O)N2CC(N3CCN(C(=O)c4ccccc4)CC3)C2)ccc1-c1ccc(Cl)c(C(F)(F)F)c1 unit_descriptor=% test_result=140

====

- target_system: mutant MGL (Homo sapiens, UniProt Q99685, L169S/L176S)
- Sequence (Q99685 1-303 L169S/L176S): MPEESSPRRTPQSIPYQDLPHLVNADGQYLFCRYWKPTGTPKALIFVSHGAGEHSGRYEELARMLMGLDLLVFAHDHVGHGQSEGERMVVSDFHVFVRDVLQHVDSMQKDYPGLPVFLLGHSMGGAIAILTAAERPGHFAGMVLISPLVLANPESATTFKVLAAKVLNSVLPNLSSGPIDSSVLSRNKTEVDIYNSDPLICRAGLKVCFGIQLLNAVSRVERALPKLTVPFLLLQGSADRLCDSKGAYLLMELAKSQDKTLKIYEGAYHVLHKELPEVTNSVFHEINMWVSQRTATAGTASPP
- protocol_summary: MGL ThermoFluor assay - mutant
- Assay type: binding
- measurement_context: ThermoFluor, compound concentration measured by qNMR, read-out: MGL mutant ThermoFluor qKd (μM) (using qNMR conc.)
attribute_measured: log10 of Kd (log10 of the value in µM)

substance_smiles=O=C(c1cscn1)N1CCN(C2CN(C(=O)c3sc4cc(F)c(C(F)(F)F)cc4c3Cl)C2)CC1 target_system="mutant MGL (Homo sapiens, UniProt Q99685, L169S/L176S)" attribute_measured="log10 of Kd" test_result=-2.22
substance_smiles=O=C(c1cn2cc(C(F)(F)F)ccc2n1)N1CC(N2CCN(C(=O)c3nccs3)CC2)C1 target_system="mutant MGL (Homo sapiens, UniProt Q99685, L169S/L176S)" attribute_measured="log10 of Kd" test_result=1.00
substance_smiles=NC(=O)c1cccc(-n2ccc3cc(C(=O)N4CC(N5CCN(C(=O)c6nccs6)CC5)C4)ccc32)c1 target_system="mutant MGL (Homo sapiens, UniProt Q99685, L169S/L176S)" attribute_measured="log10 of Kd" test_result=-1.06
substance_smiles=Cc1cc(C(=O)N2CC(N3CCN(C(=O)c4nccs4)CC3)C2)sc1-c1cccc(F)c1 target_system="mutant MGL (Homo sapiens, UniProt Q99685, L169S/L176S)" attribute_measured="log10 of Kd" test_result=-1.44
substance_smiles=O=C(c1nccs1)N1CCN(C2CN(C(=O)c3cccc4c3ccn4-c3ccc(F)cc3)C2)CC1 target_system="mutant MGL (Homo sapiens, UniProt Q99685, L169S/L176S)" attribute_measured="log10 of Kd" test_result=-1.82
substance_smiles=Cc1sc(C(=O)N2CC(N3CCN(C(=O)c4nccs4)CC3)C2)cc1-c1ccc(F)cc1 target_system="mutant MGL (Homo sapiens, UniProt Q99685, L169S/L176S)" attribute_measured="log10 of Kd" test_result=-1.10
substance_smiles=O=C(c1ccc2c(cnn2-c2cccc(F)c2)c1)N1CC(N2CCN(C(=O)c3nccs3)CC2)C1 target_system="mutant MGL (Homo sapiens, UniProt Q99685, L169S/L176S)" attribute_measured="log10 of Kd" test_result=-2.00
substance_smiles=O=C(c1nccs1)N1CCN(C2CN(C(=O)c3sc4c(C(F)(F)F)c(F)ccc4c3Cl)C2)CC1 target_system="mutant MGL (Homo sapiens, UniProt Q99685, L169S/L176S)" attribute_measured="log10 of Kd" test_result=-2.40
substance_smiles=Cc1cc(-n2ccc3cc(C(=O)N4CC(N5CCN(C(=O)c6ccccc6)CC5)C4)ccc32)ccc1C#N target_system="mutant MGL (Homo sapiens, UniProt Q99685, L169S/L176S)" attribute_measured="log10 of Kd" test_result=-1.51
substance_smiles=O=C(c1cccc(F)c1)N1CCN(C2CN(C(=O)c3ccc4c(ccn4-c4ccc(F)cc4)c3)C2)CC1 target_system="mutant MGL (Homo sapiens, UniProt Q99685, L169S/L176S)" attribute_measured="log10 of Kd" test_result=-0.91
substance_smiles=Cn1ccc2cc(C(=O)N3CC(N4CCN(C(=O)c5nccs5)CC4)C3)cc(Br)c21 target_system="mutant MGL (Homo sapiens, UniProt Q99685, L169S/L176S)" attribute_measured="log10 of Kd" test_result=-1.17
substance_smiles=O=C(c1ccc2nc(-c3ccccn3)sc2c1)N1CC(N2CCN(C(=O)c3nccs3)CC2)C1 target_system="mutant MGL (Homo sapiens, UniProt Q99685, L169S/L176S)" attribute_measured="log10 of Kd" test_result=-1.05
substance_smiles=N#Cc1ccccc1-n1ccc2cc(C(=O)N3CC(N4CCN(C(=O)c5cscn5)CC4)C3)ccc21 target_system="mutant MGL (Homo sapiens, UniProt Q99685, L169S/L176S)" attribute_measured="log10 of Kd" test_result=-0.68
substance_smiles=O=C(c1ccc(-c2cccc(C(F)(F)F)c2)cc1)N1CC(N2CCN(C(=O)c3ccon3)CC2)C1 target_system="mutant MGL (Homo sapiens, UniProt Q99685, L169S/L176S)" attribute_measured="log10 of Kd" test_result=-1.21
substance_smiles=O=C(c1ccc2c(ccn2-c2ccc(F)cc2)c1)N1CC(N2CCN(C(=O)c3ncco3)CC2)C1 target_system="mutant MGL (Homo sapiens, UniProt Q99685, L169S/L176S)" attribute_measured="log10 of Kd" test_result=-1.54
substance_smiles=O=C(c1cc2ccc(-c3cccnc3F)cc2[nH]1)N1CC(N2CCN(C(=O)c3nccs3)CC2)C1 target_system="mutant MGL (Homo sapiens, UniProt Q99685, L169S/L176S)" attribute_measured="log10 of Kd" test_result=-0.23

Data origin: patent US8362000B2
